Target: human TRPA1 (Homo sapiens, UniProt O75762)
Sequence (O75762 whole entry): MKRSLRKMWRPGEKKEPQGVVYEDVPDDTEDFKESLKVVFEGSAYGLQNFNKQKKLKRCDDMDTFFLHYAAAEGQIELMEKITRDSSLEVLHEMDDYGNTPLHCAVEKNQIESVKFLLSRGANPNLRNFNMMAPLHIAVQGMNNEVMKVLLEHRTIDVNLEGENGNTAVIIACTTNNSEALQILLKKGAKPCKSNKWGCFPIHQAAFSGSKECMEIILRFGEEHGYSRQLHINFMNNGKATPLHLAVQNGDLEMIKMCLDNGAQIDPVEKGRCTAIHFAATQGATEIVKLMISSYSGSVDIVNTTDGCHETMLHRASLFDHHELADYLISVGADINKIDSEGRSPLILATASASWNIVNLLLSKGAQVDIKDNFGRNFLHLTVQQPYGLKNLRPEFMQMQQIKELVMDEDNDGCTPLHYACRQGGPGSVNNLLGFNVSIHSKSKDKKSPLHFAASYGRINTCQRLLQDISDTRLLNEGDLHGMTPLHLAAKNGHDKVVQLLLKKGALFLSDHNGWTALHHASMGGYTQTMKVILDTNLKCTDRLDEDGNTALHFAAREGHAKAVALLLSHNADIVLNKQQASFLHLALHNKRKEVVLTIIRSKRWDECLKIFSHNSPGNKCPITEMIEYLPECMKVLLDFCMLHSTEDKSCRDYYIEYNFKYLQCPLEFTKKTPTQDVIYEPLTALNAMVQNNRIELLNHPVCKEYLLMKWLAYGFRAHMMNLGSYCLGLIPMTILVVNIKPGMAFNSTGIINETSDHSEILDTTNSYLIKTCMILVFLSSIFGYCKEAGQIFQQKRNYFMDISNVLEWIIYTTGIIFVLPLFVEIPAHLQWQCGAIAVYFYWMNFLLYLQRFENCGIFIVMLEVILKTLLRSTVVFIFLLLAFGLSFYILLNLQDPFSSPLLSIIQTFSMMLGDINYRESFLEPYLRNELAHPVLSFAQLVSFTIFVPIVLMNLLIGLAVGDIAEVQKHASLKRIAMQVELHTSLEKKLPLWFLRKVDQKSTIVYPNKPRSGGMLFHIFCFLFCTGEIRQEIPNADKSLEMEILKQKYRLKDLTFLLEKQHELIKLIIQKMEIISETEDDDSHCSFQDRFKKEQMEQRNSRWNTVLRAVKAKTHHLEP
Experiment: FLIPR Ca2+ assay, reduction of hydrogen peroxide activation of TRPA1
Type: cell-based
Set-up: expressed in transfected cells
Conditions: compound 100 μM against 200 μM hydrogen peroxide; Sets 1-4; read-out: % Reduction of Hydrogen Peroxide TRPA1 Activation
So basically: inhibition at 100 µM at 60% or higher? That is class 1. Lower than 60%? That is class 0.

[
  {
    "Compound": "CCCCC(=O)C(C)C",
    "Group": "class 0"
  },
  {
    "Compound": "CCCCCCO",
    "Group": "class 0"
  },
  {
    "Compound": "O=Cc1ccc(O)cc1 [4-hydroxybenzaldehyde]",
    "Group": "class 0"
  },
  {
    "Compound": "O=C(CCc1ccc(O)cc1)c1c(O)cc(O)cc1O",
    "Group": "class 1"
  }
]
